molecular target: MMP-13 (Homo sapiens); assay: MMP-13 inhibition (thiopeptide or fluorescent peptide substrate assay); format: biochemical; conditions: read-out: MMP-13 IC50
pIC50: −log10 of the molar value.
measured metric: pIC50

The cases that follow already have their pIC50 on record.
1. C=Cc1cc(C)c(N(Cc2ccccc2)S(=O)(=O)c2ccc(OC)cc2)c(C(=O)NO)c1 :: 7.89
2. COc1ccc(S(=O)(=O)N(Cc2ccncc2)c2c(C)cccc2C(=O)NO)cc1 :: 7.74
3. COc1ccc(S(=O)(=O)N(Cc2cccnc2)c2c(C)cc(-c3ccco3)cc2C(=O)NO)cc1 :: 8.49
4. COc1ccc(S(=O)(=O)N(Cc2cccc(OC)c2)c2c(C)cc(C)cc2C(=O)NO)cc1 :: 7.70
5. COc1ccc(S(=O)(=O)N(Cc2ccccc2)c2c(OC(C)C)cccc2C(=O)NO)cc1 :: 7.82
6. CCOc1ccc(S(=O)(=O)N(Cc2ccccc2)c2c(C)cc(C)cc2C(=O)NO)cc1 :: 7.62
7. Cc1cc(C)c(N(Cc2ccccc2)S(=O)(=O)c2ccc(OC(C)C)cc2)c(C(=O)NO)c1 :: 6.52
8. COc1ccc(S(=O)(=O)N(C)c2c(C)cc(C)cc2C(=O)NO)cc1 :: 7.89

1 = COc1ccc(S(=O)(=O)N(Cc2ccccc2Br)c2c(C)cc(C)cc2C(=O)NO)cc1
2 = CCCCCCCCN(C)C(=O)C=Cc1cc(C)c(N(C)S(=O)(=O)c2ccc(OC)cc2)c(C(=O)NO)c1
Which record shows the lower pIC50: the first, 1 , or the second, 2 ? Bench note: the answer is the label of the chosen record.
1
(1: 6.64, 2: 8.60)

a = CCc1cc(C)c(N(Cc2cccnc2)S(=O)(=O)c2ccc(OC)cc2)c(C(=O)NO)c1
b = CCN(CC)CCOc1ccc(CN(c2c(C)cccc2C(=O)NO)S(=O)(=O)c2ccc(OC)cc2)cc1
c = CCCCCCCCN(c1c(CN2CCN(C)CC2)cccc1C(=O)NO)S(=O)(=O)c1ccc(OC)cc1
Please list these in order of increasing pIC50. Thank you! Returns: the labels arranged in the requested order.
b, a, c

P = COc1ccc(S(=O)(=O)N(C)c2c(CCC(=O)NO)cc(Br)cc2C(=O)NO)cc1
Q = COc1ccc(S(=O)(=O)N(Cc2ccccc2)c2c(C(=O)NO)cc(OC)c(OC)c2OC)cc1
R = CCCCCCCCCCCCc1cc(C)c(N(C)S(=O)(=O)c2ccc(OC)cc2)c(C(=O)NO)c1
S = CCN(CC)CC#CCN(c1c(C)cccc1C(=O)NO)S(=O)(=O)c1ccc(OC)cc1
Sort these compounds on pIC50 so the largest reading comes first. // list labels; follow requested order
P, S, Q, R

1 = Cc1cc(C)c(N(Cc2ccccc2)S(=O)(=O)c2ccc(OCc3ccccc3)cc2)c(C(=O)NO)c1
2 = Cc1ccc(CN(c2c(C)cccc2C(=O)NO)S(=O)(=O)c2ccc(-c3ccccn3)s2)cc1C
Larger number for pIC50: 1 , or 2 ? Mark your answer with the label of the selected entry.
2

P = COc1ccc(S(=O)(=O)N(Cc2cccnc2)c2c(COC3CCCCO3)cccc2C(=O)NO)cc1 (stereo not drawn)
Q = COc1ccc(S(=O)(=O)N(Cc2ccccc2)c2c(C)cc(N(C)C)cc2C(=O)NO)cc1
Of P and Q , which shows the smaller pIC50 value? Identify your selection by its label.
Q
(Q: 7.41, P: 8.24)

P = CCN(CC)Cc1ccc(CN(c2c(C)cccc2C(=O)NO)S(=O)(=O)c2ccc(OC)cc2)cc1
Q = Cc1cccc(C(=O)NO)c1N(Cc1ccc(Cl)cc1)S(=O)(=O)c1ccc(-c2ccccn2)s1
R = COc1ccc(S(=O)(=O)N(Cc2ccccc2)c2c(OCC(F)(F)F)cccc2C(=O)NO)cc1
I would appreciate it if you could sort these 3 compounds by pIC50, starting from the smallest number. As an answer, provide the labels arranged in the order called for.
R, Q, P

###

target: MMP-1 (Homo sapiens, UniProt P03956); test: MMP-1 inhibition (thiopeptide or fluorescent peptide substrate assay); assay type: biochemical; settings: read-out: MMP-1 IC50
Sequence (P03956 100-469): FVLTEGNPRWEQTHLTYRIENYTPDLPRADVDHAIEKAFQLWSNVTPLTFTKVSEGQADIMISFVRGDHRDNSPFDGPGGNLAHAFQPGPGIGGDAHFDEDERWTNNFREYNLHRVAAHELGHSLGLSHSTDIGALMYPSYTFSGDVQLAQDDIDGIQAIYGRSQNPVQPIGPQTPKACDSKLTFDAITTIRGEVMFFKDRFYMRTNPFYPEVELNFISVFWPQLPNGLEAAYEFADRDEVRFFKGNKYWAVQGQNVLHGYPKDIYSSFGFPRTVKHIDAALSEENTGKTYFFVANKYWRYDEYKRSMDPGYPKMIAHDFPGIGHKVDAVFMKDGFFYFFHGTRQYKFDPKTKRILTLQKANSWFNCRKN
pIC50: −log10 of the molar value.
measured metric: pIC50

1 = COc1ccc(S(=O)(=O)N(Cc2cccnc2)c2c(C)cc(-c3cccnc3)cc2C(=O)NO)cc1
2 = CCCOc1ccc(S(=O)(=O)N(Cc2ccccc2)c2c(C)cc(C)cc2C(=O)NO)cc1
Larger number for pIC50: 1 , or 2 ? Indicate your choice by writing its label.
1

I = COc1ccc(S(=O)(=O)N(Cc2cccc(Br)c2)c2c(C)cc(C)cc2C(=O)NO)cc1
II = COc1ccc(S(=O)(=O)N(Cc2ccncc2)c2c(C)cccc2C(=O)NO)cc1
III = COc1ccc(S(=O)(=O)N(Cc2cccnc2)c2c(C)cc(-c3cccc(C=NO)c3)cc2C(=O)NO)cc1
Please put the entries in order of rising pIC50. List the labels, following the order given in the request.
II, I, III

P = COc1ccc(S(=O)(=O)N(Cc2ccsc2)c2c(CN3CCN(C)CC3)cccc2C(=O)NO)cc1
Q = COC(=O)c1cccc(C(=O)NO)c1N(C)S(=O)(=O)c1ccc(OC)cc1
Min pIC50? P | Q Kindly give the label for the entry you pick.
Q
(Q: 5.89, P: 6.49)

###

target: MMP-1 (Homo sapiens, UniProt P03956); assay: MMP-1 inhibition (thiopeptide or fluorescent peptide substrate assay); type: biochemical; conditions: read-out: MMP-1 IC50
measured metric: IC50 (nM)

1) CCN(CC)CC#CCN(c1c(C)cccc1C(=O)NO)S(=O)(=O)c1ccc(OC)cc1 [Example 381] :: 470
2) COc1ccc(S(=O)(=O)N(Cc2cccnc2)c2c(C)ccc(C)c2C(=O)NO)cc1 [Example 297] :: 297
3) COc1ccc(S(=O)(=O)N(Cc2ccccc2)c2c(Br)cccc2C(=O)NO)cc1 [Example 201] :: 104
4) COc1ccc(S(=O)(=O)N(C)c2c(CN3CCCC3)cc(Br)cc2C(=O)NO)cc1 [Example 314] :: 954
5) COc1ccc(S(=O)(=O)N(Cc2ccccc2Br)c2c(C)cc(C)cc2C(=O)NO)cc1 [Example 118] :: 248
6) Cc1cc(C)c(N(Cc2ccccc2)S(=O)(=O)c2ccc(OC(C)C)cc2)c(C(=O)NO)c1 [Example 304] :: 4100
7) COc1ccc(S(=O)(=O)N(Cc2cccnc2)c2c(CO)cccc2C(=O)NO)cc1 [Example 340] :: 522
8) COc1ccc(S(=O)(=O)N(Cc2ccccc2)c2c(OC)cccc2C(=O)NO)cc1 [Example 101] :: 267
9) COc1ccc(S(=O)(=O)N(Cc2cccnc2)c2c(C)cc(-c3cccs3)cc2C(=O)NO)cc1 [Example 175] :: 90
10) COc1ccc(S(=O)(=O)N(C)c2c(CN3CCN(C)CC3)cc(Br)cc2C(=O)NO)cc1 [Example 313] :: 180

P = COc1ccc(S(=O)(=O)N(Cc2ccccc2)c2cc3ccccc3cc2C(=O)NO)cc1 [Example 94]
Q = COc1ccc(S(=O)(=O)N(Cc2ccccc2)c2c(C(=O)NO)cccc2[N+](=O)[O-])cc1 [Example 170]
IC50 comparison. Which is larger, P or Q ? Bench note: the answer is the label of the chosen record.
P

1 = COc1ccc(S(=O)(=O)N(Cc2cccnc2)c2c(C(=O)NO)cccc2C(=O)OC(C)(C)C)cc1 [Example 367]
2 = COc1ccc(S(=O)(=O)N(Cc2ccccn2)c2c(C)cccc2C(=O)NO)cc1 [Example 375]
Return label of the item with the larger IC50. Candidates: 1 , 2 . # answer = label of selected item
1

###

target: UniProt P45452; assay: MMP-13 inhibition (thiopeptide or fluorescent peptide substrate assay); assay type: biochemical; conditions: read-out: MMP-13 IC50
pIC50: −log10 of the molar value. Where a name gives a salt, the structure may show the parent alone.
measured metric: pIC50

Use these answered entries as a reference point.
1) COc1ccc(S(=O)(=O)N(Cc2ccccc2)c2c(OC(C)(C)C(=O)NO)cccc2C(=O)NO)cc1 :: 8.22
2) CCCCCCCCN(C)C(=O)C=Cc1cc(C)c(N(Cc2cccnc2)S(=O)(=O)c2ccc(OC)cc2)c(C(=O)NO)c1 :: 7.85
3) COc1ccc(S(=O)(=O)N(Cc2ccccc2)c2c(C)cc(C)cc2C(=O)NO)cc1 :: 7.82
4) COc1ccc(S(=O)(=O)N(Cc2cccnc2)c2c(C)cc(-c3ccc(OC(F)(F)F)cc3)cc2C(=O)NO)cc1 [Example 404, hydrochloride salt] :: 8.02
5) COc1ccc(S(=O)(=O)N(Cc2ccccc2)c2c(OCc3ccccc3)cccc2C(=O)NO)cc1 :: 7.16

a = CCCN(c1c(C)cc(C)cc1C(=O)NO)S(=O)(=O)c1ccc(OC)cc1
b = COc1ccc(S(=O)(=O)N(Cc2cccnc2)c2c(CN3CCCC3)cccc2C(=O)NO)cc1
Which value of pIC50 is smaller, the one for a or the one for b ? Lab log: write the label of the selected item as the result.
b

a = COc1ccc(S(=O)(=O)N(Cc2cccnc2)c2c(C)cc(Br)cc2C(=O)NO)cc1
b = COc1ccc(S(=O)(=O)N2CCCCOc3cccc(C(=O)NO)c32)cc1
Identify the item whose pIC50 is the smaller number: a or b I would appreciate it if you answered with the label of your choice.
b
